- System: SK-OV-3
- PROCEDURE_DETAILS: Cytotoxicity against human SKOV3 cells assessed as cell growth at 1 uM after 48 hrs by sulforhodamine B assay
- Assay type: functional
- MEASUREMENT_PARAMETERS: SK-OV-3, 48 h, read-out: Activity
# growth at 1 µM values compiled below
Supply the numeric figure in %, leaving out any unit text.

Would you please look over these solved cases?
>  <SMILES_NOTATION>
Cc1cc(O)cc(-c2nn(CC#N)cc2-c2ccnc(-c3ccc(N(C)C)cc3)c2)c1

>  <growth at 1 µM (%)>
-11

$$$$
>  <SMILES_NOTATION>
COc1cc(C)cc(-c2c(-c3ccnc(-c4ccc(N(C)C)cc4)c3)cnn2CC#N)c1

>  <growth at 1 µM (%)>
36

$$$$
>  <SMILES_NOTATION>
COc1cc(C)cc(-c2nn(CC#N)cc2-c2ccc(-c3cccc(C(C)=O)c3)nc2)c1

>  <growth at 1 µM (%)>
-4

$$$$
>  <SMILES_NOTATION>
Cc1cc(O)cc(-c2nn(CC#N)cc2-c2ccnc(-c3ccc(Oc4ccccc4)cc3)c2)c1

>  <growth at 1 µM (%)>
63

$$$$
>  <SMILES_NOTATION>
COc1cc(C)cc(-c2c(-c3ccnc(-c4ccc(C(C)=O)cc4)c3)cnn2CC#N)c1

>  <growth at 1 µM (%)>
19

$$$$

Kindly review the next compound as well.
Report growth at 1 µM for "COc1cc(C)cc(-c2nn(CC#N)cc2-c2ccnc(-c3ccc(N(C)C)cc3)c2)c1" -24
